target-under-test: ERα (Homo sapiens, UniProt P03372)
Sequence (P03372 whole entry): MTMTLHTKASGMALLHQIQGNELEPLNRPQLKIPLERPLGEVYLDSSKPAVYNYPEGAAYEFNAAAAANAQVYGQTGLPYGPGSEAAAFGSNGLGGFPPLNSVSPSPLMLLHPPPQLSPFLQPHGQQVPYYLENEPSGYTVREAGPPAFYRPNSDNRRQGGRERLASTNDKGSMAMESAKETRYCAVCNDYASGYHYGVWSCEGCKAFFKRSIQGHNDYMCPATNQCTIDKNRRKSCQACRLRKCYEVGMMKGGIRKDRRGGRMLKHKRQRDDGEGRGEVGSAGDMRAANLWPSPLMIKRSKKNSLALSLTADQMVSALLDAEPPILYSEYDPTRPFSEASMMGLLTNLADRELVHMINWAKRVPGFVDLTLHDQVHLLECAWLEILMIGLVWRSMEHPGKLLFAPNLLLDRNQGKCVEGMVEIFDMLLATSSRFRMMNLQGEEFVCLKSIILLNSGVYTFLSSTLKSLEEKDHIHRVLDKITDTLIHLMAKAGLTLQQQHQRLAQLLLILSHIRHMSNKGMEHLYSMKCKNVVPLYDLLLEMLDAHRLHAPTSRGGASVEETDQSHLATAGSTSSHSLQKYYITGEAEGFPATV
procedure-summary: Degradation of ERα in MCF-7 cells (immunoblotting, 4 h)
Format: cell-based
test-conditions: 1nM compound
endpoint: Degradation rate (%) of ERα in MCF-7 cells

{"columns": ["compound", "target-under-test", "recorded-value"],
 "data": [
  ["O=C1CCC(N2Cc3c(ccc4c3OCC43CCN(C4CN(C(=O)C5CCN(c6ccc([C@@H]7c8ccc(O)cc8CC[C@@H]7c7ccccc7)cc6)CC5)C4)CC3)C2=O)C(=O)N1 (stereo partly shown)", "ERα (Homo sapiens, UniProt P03372)", 41],
  ["O=C1CCC(N2Cc3c(ccc4c3OCC43CCN(CCN4CCC5(CCN(c6ccc([C@@H]7c8ccc(O)cc8CC[C@@H]7c7ccccc7)cc6)CC5)C4)CC3)C2=O)C(=O)N1 (stereo partly shown)", "ERα (Homo sapiens, UniProt P03372)", 54],
  ["O=C1CCC(N2Cc3c(ccc4c3OCC43CCN(CC(=O)N4CCC5(CCN(c6ccc([C@@H]7c8ccc(O)cc8CC[C@@H]7c7ccccc7)cc6)C5)C4)CC3)C2=O)C(=O)N1 (stereo partly shown)", "ERα (Homo sapiens, UniProt P03372)", 27],
  ["O=C1CCC(N2Cc3c(ccc4c3OCC43CCN(C4CCN(CC5CCN(c6ccc([C@@H]7c8ccc(O)cc8CC[C@@H]7c7ccccc7)cc6)CC5)CC4F)CC3)C2=O)C(=O)N1 (stereo partly shown)", "ERα (Homo sapiens, UniProt P03372)", 40],
  ["N#CC1(CN2CCC3(CC2)COc2c3ccc3c2CN(C2CCC(=O)NC2=O)C3=O)CCN(C(=O)C2CCN(c3ccc([C@@H]4c5ccc(O)cc5CC[C@@H]4c4ccccc4)cc3)CC2)CC1 (stereo partly shown)", "ERα (Homo sapiens, UniProt P03372)", 22],
  ["CN(CC1CCN(c2ccc([C@@H]3c4ccc(O)cc4CC[C@@H]3c3ccccc3)cc2)CC1)[C@H]1CC[C@@H](C(=O)N2CCC3(CC2)COc2c3ccc3c2CN(C2CCC(=O)NC2=O)C3=O)CC1 (stereo partly shown)", "ERα (Homo sapiens, UniProt P03372)", 64],
  ["O=C1CCC(N2Cc3ccc4c(c3C2=O)OC2(CC4)CCN(C3CCC4(CC3)CCN(c3ccc([C@@H]5c6ccc(O)cc6CC[C@@H]5c5ccccc5)cc3)CC4)CC2)C(=O)N1 (stereo partly shown)", "ERα (Homo sapiens, UniProt P03372)", -2],
  ["C[C@@H]1Cc2c([nH]c3ccccc23)[C@@H](c2c(F)cc(N3CCC4(CC3)CC(N3CC[C@@H](N5CCC6(CC5)COc5c6ccc6c5CN(C5CCC(=O)NC5=O)C6=O)[C@@H](F)C3)C4)cc2F)N1CC(F)F (stereo partly shown)", "ERα (Homo sapiens, UniProt P03372)", 3],
  ["O=C1CCC(N2Cc3c(ccc4c3OCC43CCN(CC4CCN(CC5CCN(c6ccc([C@@H]7c8ccc(O)cc8CC[C@@H]7c7ccccc7)cc6)CC5)CC4)CC3)C2=O)C(=O)N1 (stereo partly shown)", "ERα (Homo sapiens, UniProt P03372)", 36],
  ["O=C1CCC(N2Cc3c(ccc4c3OCC43CCN(CC(=O)N4CCC5(CC4)CCN(c4ccc([C@@H]6c7ccc(O)cc7CC[C@@H]6c6ccccc6)cc4)C5)CC3)C2=O)C(=O)N1 (stereo partly shown)", "ERα (Homo sapiens, UniProt P03372)", 33]
]}
